molecular target: Fyn (UniProt P06241); assay: phosphorylation enrichment, bacterial display (enrichment ratio); higher = better substrate or ligand; peptides without Tyr show the background;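 note: 11-residue human phosphosite peptides and single-mutation variants displayed on the E. coli surface, counted by deep sequencing, each peptide's frequency after selection divided by its frequency in the unselected input library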;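 note: frequency after pTyr selection over input frequency; kinase dosed for 20-30% of maximal phosphorylation in three min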
Sequence (P06241 whole entry, looked up): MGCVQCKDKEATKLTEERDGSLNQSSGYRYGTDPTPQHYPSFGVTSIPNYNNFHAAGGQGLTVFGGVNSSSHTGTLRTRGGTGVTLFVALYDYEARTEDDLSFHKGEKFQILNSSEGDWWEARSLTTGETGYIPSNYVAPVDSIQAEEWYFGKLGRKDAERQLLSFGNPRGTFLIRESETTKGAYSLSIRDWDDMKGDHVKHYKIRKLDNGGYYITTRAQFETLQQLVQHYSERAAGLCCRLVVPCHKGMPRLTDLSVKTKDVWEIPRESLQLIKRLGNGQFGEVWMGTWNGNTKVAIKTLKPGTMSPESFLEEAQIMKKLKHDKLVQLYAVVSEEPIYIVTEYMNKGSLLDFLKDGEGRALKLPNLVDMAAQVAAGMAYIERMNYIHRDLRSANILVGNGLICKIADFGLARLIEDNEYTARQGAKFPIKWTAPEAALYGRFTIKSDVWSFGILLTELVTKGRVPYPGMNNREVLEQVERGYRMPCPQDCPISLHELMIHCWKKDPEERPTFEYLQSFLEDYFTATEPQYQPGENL
Provide the recorded phosphorylation enrichment for the entries that follow.
Answers are plain numbers.

Required: phosphorylation enrichment, one value per sequence below.
1. MASTSYDYCRV [BST2_Y6]
2. KDHRDYKYQPR [SOX9_Y172_P170R]
3. LRAGVYPEKDQ [DNM2_Y626]
4. MFCASYDTKQE [F10_Y407_G406S]
5. HFIKLYEEKTG [PARP1_Y618_M615I]
6. AKFPFYEKNKK [FOXL2_Y91]
7. VCDSDYSASRW [LRP5_Y1552]
8. KFDLMYAKHAF [TUBA1A_Y399_R402H]

Solution:
1: 0.481; 2: 0.61; 3: 0.454; 4: 0.558; 5: 0.978; 6: 0.405; 7: 0.603; 8: 0.435

Required: phosphorylation enrichment, one value per sequence below.
1. KELANYYKLHH [AK7_Y390]
2. KGLKVYVNGTL [ADGRD1_Y183_E178K]
3. EAESWYQTKYE [KRT75_Y342]
4. LDTFIYDAAVL [GRIN2A_Y730_A727T]
5. FDDGKYVFVVT [RPS6KA3_Y488_YF]
6. PVEAAYQKVVA [HBB_Y131_Q128E]
7. GQAPGYSFTAA [CYCS_Y47_YF]
8. DWRQEYVLNEP [TGM1_Y267_S272P]

Solution:
0.453
0.364
0.546
7.61
0.493
0.56
0.393
0.672

Required: phosphorylation enrichment, one value per sequence below.
1. LESILYESSVV [TRPV4_Y91_T89I]
2. ESMLRYDVYGG [STOX1_Y607_E608D]
3. GIFKDYFRFNF [PLA2G2D_Y85_S80G_YF]

Solution:
1: 1.22; 2: 1.04; 3: 0.501
